Experimental System: DPP4 (Homo sapiens)
Experiment Summary: DPP4 activity assay (DPP4 inhibitor screening assay kit, Cayman)
Type: biochemical
Design: purchased Cayman Chemical, Ann Arbor, MI, USA
Test Conditions: 0.5 h, 10 µM; control mean 100.0; Figure 1A raw data; read-out: DPP4 activity in library screen, Exp 1
# rule met = remaining activity at 10 µM below 90% (exclusive); rule not met = remaining activity at 10 µM at/above 90%

Compound	Assigned Class
CC1(C)[C@@H](O)CC[C@]2(C)[C@H]3C(=O)C=C4[C@@H]5C[C@@](C)(C(=O)O)CC[C@]5(C)CC[C@@]4(C)[C@]3(C)CC[C@@H]12 [Enoxolone]	rule met
COc1ccc(-c2cc(=O)c3c(OC)c(OC)c(OC)c(OC)c3o2)cc1 [Tangeretin]	rule met
C=CCc1ccc(O)c(-c2ccc(O)c(CC=C)c2)c1 [Honokiol]	rule not met
O=c1[nH]cnc2c1ncn2[C@@H]1O[C@H](CO)[C@@H](O)[C@H]1O [Inosine]	rule not met
C[C@H]1COC2=C1C(=O)C(=O)c1c2ccc2c1CCCC2(C)C [Cryptotanshinone]	rule met
O=C1CCC[C@@H]2[C@H]3CCC[N+]4([O-])CCC[C@@H](CN12)[C@@H]34 (stereo partly drawn) [Oxymatrine]	rule not met
O=C(CCc1ccc(O)cc1)c1c(O)cc(O)cc1O [Phloretin]	rule met

----------
Experimental System: DPP4 (Homo sapiens)
Experiment Summary: DPP4 activity assay (DPP4 inhibitor screening assay kit, Cayman)
Format: biochemical
Set-up: purchased Cayman Chemical, Ann Arbor, MI, USA
Test Conditions: 10 µM; control mean 100.0; mean of Exp 1-3

Compound	DPP4 activity in library screen, Mean
COc1ccc(CC2NCCc3cc(OC)c(OC)cc32)cc1OC.Cl (centres unmarked) [Tetrahydropapaverine HCl]	82.5
O.O=c1c(O)c(-c2ccc(O)cc2O)oc2cc(O)cc(O)c12 [Morin Hydrate]	77.5
CN1CC[C@]23c4ccccc4N[C@H]1[C@]21CCN(C)[C@H]3Nc2ccccc21	102.0
COc1ccc([C@@H]2CC(=O)c3c(O)cc(O[C@@H]4O[C@H](CO[C@@H]5O[C@@H](C)[C@H](O)[C@@H](O)[C@H]5O)[C@@H](O)[C@H](O)[C@H]4O)cc3O2)cc1O	92.5
COC12c3c(C)cc(O)c4c(=O)occ(c34)C(=O)C1C13COC(=O)c4c(O)cc(C)c(c41)C(=O)C2C3OC(C)=O (centres unmarked)	120.3
CC(=O)c1c(O)c(C)c(O)c2c1OC1=CC(=O)C(C(C)=O)C(=O)C12C (single isomer, unassigned; (+)) [(+)-Usniacin]	89.6
CC(C)(O)[C@H]1CC[C@@](C)([C@H]2[C@@H](O)C[C@@]3(C)[C@@H]4C[C@H](O[C@@H]5O[C@H](CO)[C@@H](O)[C@H](O)[C@H]5O)[C@H]5C(C)(C)[C@@H](O[C@@H]6OC[C@@H](O)[C@H](O)[C@H]6O)CC[C@@]56C[C@@]46CC[C@]23C)O1 [Astragaloside A]	104.8
Br.CCN1C[C@]2(OC(=O)c3ccccc3NC(C)=O)CC[C@H](OC)[C@]34C1[C@H](C[C@H]23)[C@@]1(O)C[C@H](OC)[C@H]2C[C@@H]4[C@]1(O)[C@H]2OC	89.4

----------
Experimental System: DPP4 (Homo sapiens, UniProt P27487)
Sequence (P27487 whole entry): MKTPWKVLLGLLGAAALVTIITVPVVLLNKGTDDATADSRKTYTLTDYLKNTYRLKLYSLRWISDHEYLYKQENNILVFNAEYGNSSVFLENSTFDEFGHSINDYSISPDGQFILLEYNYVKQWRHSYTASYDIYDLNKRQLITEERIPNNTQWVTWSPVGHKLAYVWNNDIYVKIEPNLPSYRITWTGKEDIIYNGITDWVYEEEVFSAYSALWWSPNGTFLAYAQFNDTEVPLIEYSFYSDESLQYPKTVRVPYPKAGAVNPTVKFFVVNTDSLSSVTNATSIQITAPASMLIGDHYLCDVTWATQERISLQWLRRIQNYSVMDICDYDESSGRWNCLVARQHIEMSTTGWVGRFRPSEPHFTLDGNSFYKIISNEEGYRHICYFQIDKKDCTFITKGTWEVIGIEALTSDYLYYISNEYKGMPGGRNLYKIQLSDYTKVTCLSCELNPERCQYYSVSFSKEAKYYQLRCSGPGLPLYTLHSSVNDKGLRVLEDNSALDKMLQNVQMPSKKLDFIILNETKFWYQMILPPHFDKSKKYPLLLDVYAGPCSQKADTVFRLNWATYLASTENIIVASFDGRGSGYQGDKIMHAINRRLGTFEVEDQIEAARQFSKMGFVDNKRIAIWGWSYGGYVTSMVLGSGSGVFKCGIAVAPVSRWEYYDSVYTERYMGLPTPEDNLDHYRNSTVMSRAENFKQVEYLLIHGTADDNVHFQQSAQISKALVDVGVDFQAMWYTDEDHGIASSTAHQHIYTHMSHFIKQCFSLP
Experiment Summary: DPP4 activity assay (DPP4 inhibitor screening assay kit, Cayman);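 further: fluorescence read at excitation 360 nm and emission 460 nm after the enzyme reaction ran 30 min at 37 °C in a 96-well plate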
Type: biochemical
Parameters: purchased Cayman Chemical, Ann Arbor, MI, USA
Test Conditions: 0.5 h, 10 µM; control mean 100.0; Figure 1A raw data; read-out: DPP4 activity in library screen, Exp 3
Value Kind: remaining activity at 10 µM (%)

In [3]: df
Out[3]:
                                   compound                  experimental_system  readout_unit  observed_value
0  C=C1C(=O)[C@]23[C@H](O)[C@H]1CC[C@H]2[C@@]12CO[C@]3(O)[C@@H](O)[C@@H]1C(C)(C)CC[C@@H]2O  DPP4 (Homo sapiens, UniProt P27487)             %            96.9
1  CC1(C)O[C@H]2CC(=O)OC[C@]23[C@H]2CC[C@@]4(C)[C@H](c5ccoc5)OC(=O)[C@H]5O[C@]54[C@]2(C)C(=O)C[C@@H]13  DPP4 (Homo sapiens, UniProt P27487)             %            91.4
2   O=c1c(O)c(-c2ccc(O)cc2)oc2cc(O)cc(O)c12  DPP4 (Homo sapiens, UniProt P27487)             %            70.4
3  C=C[C@H]1CN2CC[C@H]1C[C@H]2[C@H](O)c1ccnc2ccccc12  DPP4 (Homo sapiens, UniProt P27487)             %            97.3
4         C=CCc1ccc(O)c(-c2cc(CC=C)ccc2O)c1  DPP4 (Homo sapiens, UniProt P27487)             %            83.9
5  O=C(O[C@@H]1Cc2c(O)cc(O)cc2O[C@@H]1c1cc(O)c(O)c(O)c1)c1cc(O)c(O)c(O)c1 [(-)-Epigallocatechin Gallate]  DPP4 (Homo sapiens, UniProt P27487)             %            81.9

----------
Experimental System: DPP4 (Homo sapiens)
Experiment Summary: DPP4 activity assay (DPP4 inhibitor screening assay kit, Cayman)
Type: biochemical
Design: purchased Cayman Chemical, Ann Arbor, MI, USA
Test Conditions: 0.5 h, 10 µM; control mean 100.0; Figure 1A raw data; read-out: DPP4 activity in library screen, Exp 3
Value Kind: remaining activity at 10 µM (%)

In [3]: df
Out[3]:
                                    molecule  observed_value
 0          COc1ccc(-c2coc3cc(O)ccc3c2=O)cc1             108
 1                    CN(C)Cc1c[nH]c2ccccc12            88.2
 2  CC[C@@]1(O)C(=O)OCc2c1cc1n(c2=O)Cc2cc3cc(O)ccc3nc2-1 [(S)-10-Hydroxycamptothecin]            85.7
 3  O=C(CCc1ccc(O)cc1)c1c(O)cc(O)cc1O[C@@H]1O[C@H](CO)[C@@H](O)[C@H](O)[C@H]1O             114
 4  OCc1ccccc1O[C@@H]1O[C@H](CO)[C@@H](O)[C@H](O)[C@H]1O            87.9
 5  COc1c(O)cc2c(c1O)[C@@H]1O[C@H](CO)[C@@H](O)[C@H](O)[C@H]1OC2=O            73.5
 6  COc1ccc(-c2cc(=O)c3c(OC)c(OC)c(OC)c(OC)c3o2)cc1            66.2
 7  C[C@H]1COC2=C1C(=O)C(=O)c1c2ccc2c1CCCC2(C)C            58.2
 8                        CN(C)CCc1ccc(O)cc1            95.6
 9                     O=c1[nH]cnc2nc[nH]c12            98.5
10  C[C@H](NCc1ccc(OCc2cccc(F)c2)cc1)C(N)=O [Safinamide]             118
11  c1cc2c(cc1[C@H]1OC[C@H]3[C@@H]1CO[C@@H]3c1ccc3c(c1)OCO3)OCO2            85.5
12   O=c1cc(-c2ccc(O)c(O)c2)oc2cc(O)cc(O)c12              70
13  CC[C@H](CC[C@@H](C)[C@H]1CC[C@H]2[C@@H]3CC=C4C[C@@H](O)CC[C@]4(C)[C@H]3CC[C@]12C)C(C)C             104
14    OC[C@@H](O)[C@@H](O)[C@H](O)[C@H](O)CO            83.5
15   OC[C@@H](O)[C@@H](O)[C@H](O)[C@@H](O)CO            90.4

----------
Experimental System: DPP4 (Homo sapiens)
Experiment Summary: DPP4 activity assay (DPP4 inhibitor screening assay kit, Cayman)
Assay type: biochemical
Set-up: purchased Cayman Chemical, Ann Arbor, MI, USA
Test Conditions: 0.5 h, 10 µM; control mean 100.0; Figure 1A raw data; read-out: DPP4 activity in library screen, Exp 2
# maps each entry to its remaining activity at 10 µM

Compound	remaining activity at 10 µM, %
O=C1C=CC[C@@H]2[C@H]3CCCN4CCC[C@@H](CN12)[C@@H]34	109
CC1(C)[C@@H](O[C@H]2O[C@H](C(=O)O)[C@@H](O)[C@H](O)[C@H]2O[C@@H]2O[C@H](C(=O)O)[C@@H](O)[C@H](O)[C@H]2O)CC[C@]2(C)[C@H]3C(=O)C=C4[C@@H]5C[C@@](C)(C(=O)O)CC[C@]5(C)CC[C@@]4(C)[C@]3(C)CC[C@@H]12	78.9
COc1ccc(-c2cc(=O)c3c(O)cc(O[C@@H]4O[C@H](CO[C@@H]5O[C@@H](C)[C@H](O)[C@@H](O)[C@H]5O)[C@@H](O)[C@H](O)[C@H]4O)cc3o2)cc1O	69
O=C(/C=C/c1ccc(O)c(O)c1)O[C@@H]1C[C@](O)(C(=O)O)C[C@@H](O)[C@H]1O	81.8
COc1c(O)cc2c(c1O)[C@@H]1O[C@H](CO)[C@@H](O)[C@H](O)[C@H]1OC2=O	102
O=c1c2ccccc2oc2ccccc12	79.9
OC[C@@H](O)[C@@H](O)[C@H](O)[C@H](O)CO	95.6
CC1=C(CC/C(C)=C/CCC2=CC[C@H](C3=CC(=O)O[C@H]3O)O[C@H]2O)C(C)(C)CCC1 [Manoalide]	112
OCc1c[nH]c2ccccc12	92
COc1cc(O)c(CC=C(C)C)c(O)c1C(=O)/C=C/c1ccc(O)cc1	102
COc1ccc(-c2cc(=O)c3c(OC)c(OC)c(OC)c(OC)c3o2)cc1OC	69.9
C[C@H]1[C@H](OC(=O)CCC(=O)O)O[C@@H]2O[C@@]3(C)CC[C@H]4[C@H](C)CC[C@@H]1[C@@]24OO3 [Artesunate]	99
